# MMP assays efficacy (%) Rat Hepatocytes per entry
Tested on: rat primary hepatocytes
Experiment: MMP assay in rat primary hepatocytes
Conditions: rat hepatocytes; mean ± SD of three experiments
Numbers only; they are read as %.

- molecule: "NNc1nc(-c2ccc([N+](=O)[O-])cc2)cs1 [2-Hydrazino-4-(4-nitrophenyl)thiazole]"
  units.text: "%"
  MMP assays efficacy (%) Rat Hepatocytes: -89
- molecule: "CCc1cc(Cc2cc(CC)cc(C(C)(C)C)c2O)c(O)c(C(C)(C)C)c1"
  units.text: "%"
  MMP assays efficacy (%) Rat Hepatocytes: -78
- molecule: "C=CCc1cc(S(=O)(=O)c2ccc(O)c(CC=C)c2)ccc1O"
  units.text: "%"
  MMP assays efficacy (%) Rat Hepatocytes: -52

Now consider the entry below.
Incoming: Please supply the value of reported MMP assays efficacy (%) Rat Hepatocytes for the item Nc1nc(-c2ccc([N+](=O)[O-])cc2)cs1
Outgoing: -53

###

System: rat primary hepatocytes
In this scheme, each record receives a class according to its MMP assays efficacy (%) Rat Hepatocytes; the ranges are bottom = under -80%, middle = from -80% up to -60%, top = -60% and over

- compound: "O=[N+]([O-])c1cccc2ccccc12"
  target.of.assay: "rat primary hepatocytes"
  category.label: "top"
- compound: "Cc1ccccc1C(=O)Nc1cccc(OC(C)C)c1"
  target.of.assay: "rat primary hepatocytes"
  category.label: "top"
- compound: "Nc1c(Br)cc(Br)c2c1C(=O)c1ccccc1C2=O"
  target.of.assay: "rat primary hepatocytes"
  category.label: "top"
- compound: "O=C(Nc1cccc(Cl)c1)OCC#CCCl"
  target.of.assay: "rat primary hepatocytes"
  category.label: "middle"
- compound: "O=[N+]([O-])c1ccc(O/N=C/c2cc(Br)c(O)c(Br)c2)c([N+](=O)[O-])c1"
  target.of.assay: "rat primary hepatocytes"
  category.label: "bottom"

Incoming: Bin? CCC(C)c1cc([N+](=O)[O-])cc([N+](=O)[O-])c1OC(=O)OC(C)C (stereo not shown)
Outgoing: bottom

Incoming: Using the reported MMP assays efficacy (%) Rat Hepatocytes, which band applies to COc1ccc(N)cc1N.O=S(=O)(O)O [2,4-Diaminoanisole sulfate] ?
Outgoing: top

###

As an illustration, consider measured MMP assays efficacy (%) Rat Hepatocytes for molecules on rat primary hepatocytes.
Numbers only; they are read as %.

Incoming: Give MMP assays efficacy (%) Rat Hepatocytes only, for C=C(c1ccc(C(=O)O)cc1)c1cc2c(cc1C)C(C)(C)CCC2(C)C [Bexarotene, reference compound] , using rat primary hepatocytes data.
Outgoing: -112

Incoming: GET MMP assays efficacy (%) Rat Hepatocytes where system = rat primary hepatocytes and item = Clc1ccc(Nc2nnc(Cc3ccncc3)c3ccccc23)cc1
Outgoing: -51

Incoming: Look up rat primary hepatocytes data: MMP assays efficacy (%) Rat Hepatocytes of O=S(=O)(c1ccc(Cl)cc1)c1cc(Cl)c(Cl)cc1Cl [Tetradifon] , then report it.
Outgoing: -77

Incoming: Fill in MMP assays efficacy (%) Rat Hepatocytes for O=C(Nc1ccc(Oc2ccc(Cl)cc2)c(Cl)c1)c1cc(I)cc(I)c1O [Rafoxanide, reference compound] tested with rat primary hepatocytes.
Outgoing: -91

Incoming: Recall the reported MMP assays efficacy (%) Rat Hepatocytes of CC(=O)Oc1ccc(C2(c3ccc(OC(C)=O)cc3)C(=O)Nc3ccccc32)cc1 [Oxyphenisatin acetate] on rat primary hepatocytes and write it down.
Outgoing: -71

Incoming: Supply MMP assays efficacy (%) Rat Hepatocytes measured with rat primary hepatocytes for Cl.Cl.Nc1ccccc1N [1,2-Phenylenediamine dihydrochloride] .
Outgoing: -104

Incoming: State measured MMP assays efficacy (%) Rat Hepatocytes of the molecule COP(=S)(OC)Oc1cc(Cl)c(Cl)cc1Cl [Fenchlorphos] with rat primary hepatocytes.
Outgoing: -96

Incoming: // fetch MMP assays efficacy (%) Rat Hepatocytes; item: CCCCCCCCCCCCc1ccc(O)cc1 [Compound 4-Dodecylphenol] ; system: rat primary hepatocytes
Outgoing: -53

###

System: isolated rat liver mitochondria
Experiment: Oxygen consumption, Clark-type oxygen electrode
Format: biochemical
Details: 4 µM
Known II-ADP, % of control (O2 consumption rate) of a selection of compounds

Worked cases, answers included:
- compound: "CC[C@@H](C(=O)[C@@H](C)[C@@H](O)[C@H](C)CCc1ccc(C)c(O)c1C(=O)O)[C@H]1O[C@](CC)([C@H]2CC[C@](O)(CC)[C@H](C)O2)C[C@@H]1C [Lasalocid sodium, reference compound]"
  recorded.measurement: "60 (35.9) % of control"
- compound: "CO/C=C(/C(=O)OC)c1ccccc1COc1cccc(C(F)(F)F)n1"
  recorded.measurement: "9 (6.6) % of control"
- compound: "CCC(C)c1cc([N+](=O)[O-])cc([N+](=O)[O-])c1O (stereo not drawn)"
  recorded.measurement: "28 (19.1) % of control"
- compound: "O=C(Nc1ccccc1)Nc1cnns1"
  recorded.measurement: "95 (83.6) % of control"
- compound: "O=C1c2ccccc2C(=O)C1C(=O)C(c1ccccc1)c1ccc(Cl)cc1 (stereo not drawn)"
  recorded.measurement: "87 (58.8) % of control"

Proceeding to the next compound to report its II-ADP, % of control (O2 consumption rate).
Incoming: Identify measured II-ADP, % of control (O2 consumption rate) corresponding to O=C1c2c(O)ccc([N+](=O)[O-])c2C(=O)c2c([N+](=O)[O-])ccc(O)c21 [1,8-Dihydroxy-4,5-dinitroanthraquinone]
Outgoing: 104 (80.3) % of control

###

Test system: Caenorhabditis elegans (Bristol N2)
Assay: C. elegans larval development and growth assay
Conditions: 1 µM
Reported EXT: mean difference in nematode size relative to plate controls is given for each of the following compounds.
Reply with just the number.

Example results:
- compound: "O=C(Nc1ccc(Cl)cc1)Nc1ccc(Cl)c(Cl)c1"
  recorded.measurement: 1.127
- compound: "CCC(C)c1cc([N+](=O)[O-])cc([N+](=O)[O-])c1O (centres unmarked)"
  recorded.measurement: -0.02122
- compound: "Nc1ccc2c(c1)C(=O)c1ccccc1C2=O"
  recorded.measurement: 0.7865

Incoming: Tell us which EXT: mean difference in nematode size relative to plate controls value is on record for O=C1CCC(N2C(=O)c3ccccc3C2=O)C(=O)N1 (centres unmarked) [Thalidomide]
Outgoing: -0.00358

Incoming: Indicate the recorded EXT: mean difference in nematode size relative to plate controls value for this compound: O=C(Nc1ccccc1)Nc1cnns1
Outgoing: 0.07124

###

Tested on: Caenorhabditis elegans (Bristol N2)
Assay: C. elegans larval development and growth assay
Conditions: Caenorhabditis elegans, read-out: LEC EXT: lowest effect concentration for extinction, a measure of nematode size
Please use condition met whenever minimal effective concentration is not below 2 µM, and condition not met whenever it is.

The following compounds have reported results that may help.
- compound: "N#CC(c1ccc(Cl)cc1)c1c(Cl)cc(-n2ncc(=O)[nH]c2=O)cc1Cl (stereo not drawn) [Diclazuril, reference compound]"
  category.label: "condition met"
- compound: "O=C1c2ccccc2C(=O)C1C(=O)C(c1ccccc1)c1ccc(Cl)cc1 (stereo not drawn)"
  category.label: "condition not met"
- compound: "C=C(c1ccc(C(=O)O)cc1)c1cc2c(cc1C)C(C)(C)CCC2(C)C [Bexarotene, reference compound]"
  category.label: "condition met"

Incoming: Test whether the compound O=C1CCC(N2C(=O)c3ccccc3C2=O)C(=O)N1 (stereo not drawn) [Thalidomide] records minimal effective concentration of 2 µM or higher.
Outgoing: condition met

Incoming: Hello, I need to know if CCOCn1c(-c2ccc(Cl)cc2)c(C#N)c(Br)c1C(F)(F)F has measured minimal effective concentration not below 2 µM. Thanks!
Outgoing: condition not met

Incoming: Exam item: decide whether the reported minimal effective concentration for CC(C)[C@@H]1NC(=O)[C@H](C)OC(=O)[C@@H](C(C)C)NC(=O)[C@@H](C(C)C)OC(=O)[C@H](C(C)C)NC(=O)[C@H](C)OC(=O)[C@@H](C(C)C)NC(=O)[C@@H](C(C)C)OC(=O)[C@H](C(C)C)NC(=O)[C@H](C)OC(=O)[C@@H](C(C)C)NC(=O)[C@@H](C(C)C)OC1=O is at least 2 µM.
Outgoing: condition met

###

System: rat primary hepatocytes
Assay: MMP assay in rat primary hepatocytes
Conditions: Rattus norvegicus, Hepatocyte, read-out: MMP assays IC50 (µM) Rat Hepatocytes
Structures can show the parent of a compound that is named as a salt.
Reported IC50 values for the following molecules.
Quick reminder: number only, in µM, skip the unit.

- molecule: "CCOc1ccccc1OCCN[C@H](C)Cc1ccc(OC)c(S(N)(=O)=O)c1 [Tamsulosin hydrochloride]"
  units.text: "µM"
  IC50: 25.1
- molecule: "CCC(=O)Oc1ccc(/C(CC)=C(\\CC)c2ccc(OC(=O)CC)cc2)cc1 [Diethylstilbestrol dipropionate]"
  units.text: "µM"
  IC50: 49.3
- molecule: "CC(C)(C)c1cc([N+](=O)[O-])cc([N+](=O)[O-])c1O"
  units.text: "µM"
  IC50: 0.76
- molecule: "COC(=O)C1=C(C)NC(C)=C(C(=O)OCCN2CCN(C(c3ccccc3)c3ccccc3)CC2)C1c1cccc([N+](=O)[O-])c1 (centres unmarked)"
  units.text: "µM"
  IC50: 20.9
- molecule: "O=[N+]([O-])c1cc(C2CCCCC2)c(O)c([N+](=O)[O-])c1"
  units.text: "µM"
  IC50: 1.4
- molecule: "COc1ccc(-c2coc3cc(O)ccc3c2=O)cc1"
  units.text: "µM"
  IC50: 13.2

Incoming: Give a short answer stating reported IC50 for C[C@]12CC[C@H]3C(=CCc4cc(O)ccc43)[C@@H]1CCC2=O .
Outgoing: 39.1

Incoming: Specify measured IC50 for Nc1ccc(Cl)cc1N .
Outgoing: 11
